system: MS2 coat protein; assay: apparent KD of MS2 coat protein; designed switch direction (-1 OFF switch, 1 ON switch): -1; higher = weaker reporter binding; conditions: input ligand: microRNA oligo, concentration not stated
Measure: apparent KD of MS2 coat protein (nM)
Answers are plain numbers, in nM.

# Input Sequence, Recorded Number
records = [
    ("AAAGAUGGAGGAUAUACAUGAGGAUCACCCAUGUAGAAAAAAAAUUGGGAAAAAGAAAGUAGAAGGCCAAAAAA [Ex 3 May 43] (Eterna round: R96, puzzle: Exclusion 3)", 25.6),
    ("ACAUGUGUUGUAGGAUAUAGGAUACAUGAGGAUCACCCAUGUGGAUUCAUGUCAAAGGAAACGUCCUAGAAGGACGACAACAUG [Ex NG2 #23] (Eterna round: R96, puzzle: Exclusion NG 2)", 53.2),
]

Value of measured apparent KD of MS2 coat protein for the entry AUAAAUCAUGUAGGAUAUGCGUGGCGAAGCUAUGCAGAAGGACAUGAGGAUCACCCAUGUGCUUGCGUCUGAGUACAGAUGCUA [Mat - Exclusion NG 1 - Mod of JL - D6] (Eterna round: R96, puzzle: Exclusion NG 1) : 77.1
